All figures here come from FireProtDB (doi:10.1016/0022-2836(92)90560-7).

We begin with a simple list: items and their reported unfolding free energy.
B1: Ribonuclease, P00648 (parent)
chain: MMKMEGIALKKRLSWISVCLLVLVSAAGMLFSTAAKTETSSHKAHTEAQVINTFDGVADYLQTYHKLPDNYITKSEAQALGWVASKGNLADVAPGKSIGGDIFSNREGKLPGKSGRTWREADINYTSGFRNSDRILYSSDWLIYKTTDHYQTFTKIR

- Variants of: B1
- Conditions: Bacillus amyloliquefaciens; pH 5.8; 25 °C; Urea; Fluorescence; MES/Tris 150 mM/150 mM/; NaCl 1 M; structure 1BNI; whole UniProt chain shown
Recorded metric: unfolding free energy (kcal/mol)

* W141F | 9.94
* H65G | 10
* W141Y | 9.73
* W141L | 9.41
